This listing pairs compounds with measured Luminescence signal for ATP measurement, day-1 Average.
System: WI-38 cells
Assay: Long-term effects on cell viability (5 days, ATP; morphology, PI imaging)
Assay type: cell-based
Details: Batch 1; 10 μM; day-1; n = 6; day-0 luminescence = 320956 ± 24708

Illustrative cases are given below, each with its answer.
Cc1ccc(NC(=O)c2ccc([N+](=O)[O-])o2)cc1C ... 383221
COc1cc2c(no[n+]2[O-])n2nnnc12 ... 310373

Looking for the measured Luminescence signal for ATP measurement, day-1 Average of CCc1ccc(Oc2nc3ccccn3c(=O)c2/C=C(\C#N)C(=O)NCc2ccco2)cc1 , can you help?
529430

###

Assay: Summary score for characterization of 38 core set hits
Details: human
PARAMETER MEASURED: S = Sum of Negative scores
// no unit, no text: just the number

Illustrative cases are given below, each with its answer.
Nc1ccccc1S(=O)(=O)Nc1cccc2cccnc12 ... 2
CCc1ccccc1NC(=O)c1ccc([N+](=O)[O-])o1 ... 1

Looking for the measured S = Sum of Negative scores of O=C(/C=C/c1cn(-c2ccccc2)nc1-c1cccnc1)c1ccccc1 , can you help?
0

Looking for the measured S = Sum of Negative scores of CCCC(=O)Nc1ccc(-c2cn3cccc(C)c3n2)cc1 , can you help?
0

Looking for the measured S = Sum of Negative scores of O=C(/C(=C/c1ccc(Cl)cc1)c1nc2ccccc2[nH]1)c1ccccc1 , can you help?
0

Looking for the measured S = Sum of Negative scores of Oc1ccccc1-c1noc(-c2ccccc2O)n1 , can you help?
2

Looking for the measured S = Sum of Negative scores of CCc1ccc(Oc2nc3ccccn3c(=O)c2/C=C(\C#N)C(=O)NC2CCCCC2)cc1 , can you help?
0

Looking for the measured S = Sum of Negative scores of O=C(Nc1cc(C(F)(F)F)ccc1Cl)c1ccc([N+](=O)[O-])o1 , can you help?
0

Looking for the measured S = Sum of Negative scores of N=C1S/C(=C\c2cn(-c3ccccc3)nc2-c2cccs2)C(=O)N1c1nccs1 , can you help?
2

Looking for the measured S = Sum of Negative scores of CC1C(=O)C(C)C(c2cc(Cl)ccc2O)NC1c1cc(Cl)ccc1O (stereo not shown) , can you help?
0

Looking for the measured S = Sum of Negative scores of COC(=O)CCc1sc2c(c1[N+](=O)[O-])NC(=O)CCC2 , can you help?
0

Looking for the measured S = Sum of Negative scores of O=C(Nc1ccc(Cl)c(Cl)c1)c1ccc([N+](=O)[O-])o1 , can you help?
1

Looking for the measured S = Sum of Negative scores of O=C(NCc1cccnc1)/C(=C\c1cccc(Oc2ccccc2)c1)S(=O)(=O)c1ccccc1 , can you help?
1

Looking for the measured S = Sum of Negative scores of O=C1NCCCc2cc(Cl)sc21 , can you help?
0

Looking for the measured S = Sum of Negative scores of COc1cccc(/C=C2\CN(C)C/C(=C\c3cccc(OC)c3OC)C2=O)c1OC , can you help?
1

Looking for the measured S = Sum of Negative scores of CCCN1C/C(=C\c2ccc(F)cc2)C(=O)/C(=C/c2ccc(F)cc2)C1 , can you help?
0

###

This listing pairs molecules with measured P = Potential DNA-damaging.
Test system: phosphorylated γH2A.X and TP53BP1
Assay: DNA damage marker analysis (immuno-staining)
Conditions: human, 24 h
// no unit, no text: just the number

O=[N+]([O-])c1ccccc1S(=O)(=O)Nc1cccc2cccnc12 ... 1
O=C(Nc1cccc(C(F)(F)F)c1)c1ccc([N+](=O)[O-])o1 ... 0
O=C(Nc1ccc(Cl)c(Cl)c1)c1ccc([N+](=O)[O-])o1 ... 0
CNC(=O)/C(C#N)=C/c1c(Oc2ccc(C(C)(C)C)cc2)nc2ccccn2c1=O ... 0
O=C(NCc1cccnc1)/C(=C\c1cccc(Oc2ccccc2)c1)S(=O)(=O)c1ccccc1 ... 0

Looking for the measured P = Potential DNA-damaging of O=C(Nc1cc(C(F)(F)F)ccc1Cl)c1ccc([N+](=O)[O-])o1 , can you help?
0

Looking for the measured P = Potential DNA-damaging of N=C1S/C(=C\c2cn(-c3ccccc3)nc2-c2cccs2)C(=O)N1c1nccs1 , can you help?
1
